Sequence of the target: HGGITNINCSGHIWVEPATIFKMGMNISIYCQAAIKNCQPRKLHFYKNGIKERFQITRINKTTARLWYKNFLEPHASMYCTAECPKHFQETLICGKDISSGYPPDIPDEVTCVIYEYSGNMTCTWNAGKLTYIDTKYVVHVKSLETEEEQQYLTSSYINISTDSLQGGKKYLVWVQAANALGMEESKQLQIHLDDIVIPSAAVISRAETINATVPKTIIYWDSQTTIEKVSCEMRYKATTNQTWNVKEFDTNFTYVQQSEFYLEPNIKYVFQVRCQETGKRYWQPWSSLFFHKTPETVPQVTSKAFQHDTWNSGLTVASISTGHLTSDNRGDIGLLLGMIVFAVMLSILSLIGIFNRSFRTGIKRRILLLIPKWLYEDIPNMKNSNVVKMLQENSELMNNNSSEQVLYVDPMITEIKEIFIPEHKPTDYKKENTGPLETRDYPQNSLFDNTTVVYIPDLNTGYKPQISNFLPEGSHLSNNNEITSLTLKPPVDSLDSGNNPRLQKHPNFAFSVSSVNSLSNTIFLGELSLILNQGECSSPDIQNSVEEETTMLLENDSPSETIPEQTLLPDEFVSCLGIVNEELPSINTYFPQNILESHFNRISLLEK
Where a SMILES comes first, the peptide text is derived from it. Bridges are numbered along the chain shown (N, C = ends). [ ]: non-standard residue; d: D form. 2Nal = N[C@@H](Cc1ccc2ccccc2c1)C(=O)O; AEF = NCCOc1ccc(C[C@H](N)C(=O)O)cc1; 3Pal = N[C@@H](Cc1cccnc1)C(=O)O; Aad = N[C@@H](CCCC(=O)O)C(=O)O; αMeL = CC(C)C[C@](C)(N)C(=O)O; dOrn = NCCC[C@@H](N)C(=O)O; Dab = NCC[C@H](N)C(=O)O
Value kind: IC50 (nM)

- CC(C)C[C@]1(C)NC(=O)[C@H](Cc2ccc3ccccc3c2)NC(=O)[C@H](Cc2ccc(OCCN)cc2)NC(=O)[C@@H]2CCC(=O)N[C@H](CCCNC(=O)CCC[C@@H](C(=O)N[C@@H](CCN)C(=O)N[C@@H](Cc3cccnc3)C(N)=O)NC1=O)C(=O)N[C@@H]([C@@H](C)O)C(=O)N[C@@H](C(C)C)C(=O)N[C@@H](Cc1c[nH]c3ccccc13)C(=O)N[C@@H](CCC(N)=O)C(=O)N2 [Compound 6] ([dOrn]TVWQE[AEF][2Nal][αMeL][Aad][Dab][3Pal]-NH2; lactam 1-10, N-6): 0.022
